Non-standard residues stand in square brackets, D forms with d. Residues, ends and D or L forms follow the SMILES beside them. *: point of attachment. NH(3,5-(CF3)2-benzyl) = FC(F)(F)c1cc(CN*)cc(C(F)(F)F)c1; NMePhe(4-F) = CN[C@@H](Cc1ccc(F)cc1)C(=O)O; Phe(4-F) = N[C@@H](Cc1ccc(F)cc1)C(=O)O; Dmt = Cc1cc(O)cc(C)c1C[C@H](N)C(=O)O; NMeF = CN[C@@H](Cc1ccccc1)C(=O)O; Orn = NCCC[C@H](N)C(=O)O
Assay system UniProtKB P41143; read-out recorded as pIC50.
Sequence (P41143 whole entry): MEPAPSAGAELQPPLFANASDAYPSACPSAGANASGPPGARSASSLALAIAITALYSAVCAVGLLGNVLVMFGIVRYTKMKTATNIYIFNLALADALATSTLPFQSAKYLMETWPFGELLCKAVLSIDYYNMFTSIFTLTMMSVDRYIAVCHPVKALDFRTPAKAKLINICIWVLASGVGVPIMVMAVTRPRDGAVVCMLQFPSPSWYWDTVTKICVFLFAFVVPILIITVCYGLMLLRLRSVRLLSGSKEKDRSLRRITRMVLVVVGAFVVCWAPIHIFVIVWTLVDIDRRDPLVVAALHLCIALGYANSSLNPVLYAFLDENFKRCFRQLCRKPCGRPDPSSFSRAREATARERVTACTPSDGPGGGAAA
Answers are plain numbers, as −log10 of the molar value.

compound="Cc1cc(O)cc(C)c1C[C@H](N)C(=O)N[C@H](C)C(=O)NCC(=O)N(C)[C@@H](Cc1ccc(F)cc1)C(=O)N[C@@H](CO)C(=O)N1CCC[C@H]1C(=O)N[C@@H](CC(C)C)C(=O)N[C@@H](Cc1c[nH]c2ccccc12)C(=O)NCc1cc(C(F)(F)F)cc(C(F)(F)F)c1 [AKG135] (H-[Dmt][dA]G[NMePhe(4-F)]SPLW-{NH(3,5-(CF3)2-benzyl)}; N-terminus assumed)" assay_endpoint=pIC50 readout_value=9.00
compound=CC(C)C[C@H](NC(=O)[C@@H]1CCCN1C(=O)[C@H](CCC(N)=O)NC(=O)[C@H](Cc1ccc(F)cc1)N(C)C(=O)CNC(=O)[C@@H](C)NC(=O)[C@@H](N)Cc1ccc(O)cc1)C(=O)N[C@@H](Cc1c[nH]c2ccccc12)C(=O)NCc1cc(C(F)(F)F)cc(C(F)(F)F)c1 assay_endpoint=pIC50 readout_value=8.84
compound="Cc1cc(O)cc(C)c1C[C@H](N)C(=O)N[C@H](C)C(=O)NCC(=O)N(C)[C@@H](Cc1ccccc1)C(=O)N[C@@H](CO)C(=O)NCC(=O)N1CCC[C@H]1C(=O)N[C@@H](CC(C)C)C(=O)N[C@@H](Cc1c[nH]c2ccccc12)C(=O)NCc1cc(C(F)(F)F)cc(C(F)(F)F)c1 [AKG-CRA-137] (H-[Dmt][dA]G[NMeF]SGPLW-{NH(3,5-(CF3)2-benzyl)})" assay_endpoint=pIC50 readout_value=8.57
compound="CC(C)C[C@H](NC(=O)[C@@H]1CCCN1C(=O)CNC(=O)[C@H](Cc1ccc(F)cc1)NC(=O)CNC(=O)[C@@H](C)NC(=O)[C@@H](N)Cc1ccc(O)cc1)C(=O)N[C@@H](Cc1c[nH]c2ccccc12)C(=O)NCc1cc(C(F)(F)F)cc(C(F)(F)F)c1 [AKG130] (H-Y[dA]G[Phe(4-F)]GPLW-{NH(3,5-(CF3)2-benzyl)})" assay_endpoint=pIC50 readout_value=7.96
compound=CC(C)C[C@H](NC(=O)[C@@H]1CCCN1C(=O)CCCNC(=O)[C@H](Cc1ccccc1)N(C)C(=O)CNC(=O)[C@@H](C)NC(=O)[C@@H](N)Cc1ccc(O)cc1)C(=O)N[C@@H](Cc1c[nH]c2ccccc12)C(=O)NCc1cc(C(F)(F)F)cc(C(F)(F)F)c1 assay_endpoint=pIC50 readout_value=8.23

Respectfully, I request pIC50 for each entry included below.
1. CC(C)C[C@H](NC(=O)[C@@H]1CCCN1C(=O)[C@H](CCCN)NC(=O)[C@H](Cc1ccccc1)N(C)C(=O)CNC(=O)[C@@H](C)NC(=O)[C@@H](N)Cc1ccc(O)cc1)C(=O)N[C@@H](Cc1c[nH]c2ccccc12)C(=O)NCc1cc(C(F)(F)F)cc(C(F)(F)F)c1 [AKG173] (H-Y[dA]G[NMeF][Orn]PLW-{NH(3,5-(CF3)2-benzyl)})
2. Cc1cc(O)cc(C)c1C[C@H](N)C(=O)N[C@H](C)C(=O)NCC(=O)N(C)[C@@H](Cc1ccccc1)C(=O)N1CCC[C@H]1C(=O)N[C@@H](CC(C)C)C(=O)N[C@@H](Cc1c[nH]c2ccccc12)C(=O)NCc1cc(C(F)(F)F)cc(C(F)(F)F)c1

1: 6.30; 2: 7.92

###

MEASURED_TARGET: UniProt:P14600
Sequence (P14600 whole entry): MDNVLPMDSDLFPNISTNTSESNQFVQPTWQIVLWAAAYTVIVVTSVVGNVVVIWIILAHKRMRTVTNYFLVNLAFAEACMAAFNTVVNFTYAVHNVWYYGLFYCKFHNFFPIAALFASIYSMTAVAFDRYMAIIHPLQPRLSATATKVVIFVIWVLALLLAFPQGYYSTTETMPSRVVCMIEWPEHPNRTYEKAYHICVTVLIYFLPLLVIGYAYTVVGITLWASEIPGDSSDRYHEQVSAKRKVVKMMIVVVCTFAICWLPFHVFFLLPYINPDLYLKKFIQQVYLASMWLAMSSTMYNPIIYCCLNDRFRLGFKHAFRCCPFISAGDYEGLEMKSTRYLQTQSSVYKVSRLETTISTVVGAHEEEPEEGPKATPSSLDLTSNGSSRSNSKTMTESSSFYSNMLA
PROTOCOL_DETAILS: Radioligand binding assay at rat NK1 receptor
CONDITIONS_USED: Ki^rNK1 (nM)
Non-standard residues stand in square brackets, D forms with d. Residues, ends and D or L forms follow the SMILES beside them. *: point of attachment. NH(3,5-(CF3)2-benzyl) = FC(F)(F)c1cc(CN*)cc(C(F)(F)F)c1; NMeF = CN[C@@H](Cc1ccccc1)C(=O)O
So I've got a bunch of compounds here, and I need their Ki values.
Numbers only, in nM.

Field: example entries. Status: answers known.
compound="CC(C)C[C@H](NC(=O)[C@@H]1CCCN1C(=O)CNC(=O)[C@H](Cc1ccccc1)N(C)C(=O)CNC(=O)[C@@H](C)NC(=O)[C@@H](N)Cc1ccc(O)cc1)C(=O)N[C@@H](Cc1c[nH]c2ccccc12)C(=O)NCc1cc(C(F)(F)F)cc(C(F)(F)F)c1 [AKG113] (H-Y[dA]G[NMeF]GPLW-{NH(3,5-(CF3)2-benzyl)})" readout_value=60
compound="CC(C)C[C@H](NC(=O)[C@@H]1CCCN1C(=O)[C@H](Cc1ccccc1)NC(=O)[C@H](Cc1c[nH]c2ccccc12)NC(=O)[C@@H]1CCCN1C(=O)[C@@H](N)Cc1ccc(O)cc1)C(=O)N[C@@H](Cc1c[nH]c2ccccc12)C(=O)NCc1cc(C(F)(F)F)cc(C(F)(F)F)c1 [AKG221] (H-YPWFPLW-{NH(3,5-(CF3)2-benzyl)})" readout_value=38.5

Entry CC(C)C[C@H](NC(=O)[C@@H]1CCCN1C(=O)[C@H](CC(N)=O)NC(=O)[C@H](Cc1ccccc1)NC(=O)CNC(=O)[C@@H](C)NC(=O)[C@@H](N)Cc1ccc(O)cc1)C(=O)N[C@@H](Cc1c[nH]c2ccccc12)C(=O)NCc1cc(C(F)(F)F)cc(C(F)(F)F)c1 : reported Ki = ?
20

###

I'd be grateful if you could share measured Ki^μ/Ki^δ for these entries.
MEASURED_TARGET: MOR
PROTOCOL_DETAILS: Radioligand binding assay at μ opioid receptor
CONDITIONS_USED: ratio of binding affinities MOR/DOR
Non-standard residues stand in square brackets, D forms with d. Residues, ends and D or L forms follow the SMILES beside them. *: point of attachment. NH(3,5-(CF3)2-benzyl) = FC(F)(F)c1cc(CN*)cc(C(F)(F)F)c1; NMeBn(3,5-(CF3)2) = CN(Cc1cc(C(F)(F)F)cc(C(F)(F)F)c1)*; Dmt = Cc1cc(O)cc(C)c1C[C@H](N)C(=O)O; NMeF = CN[C@@H](Cc1ccccc1)C(=O)O

compound=CC(C)C[C@H](NC(=O)[C@@H]1CCCN1C(=O)[C@@H](CO)NC(=O)[C@H](Cc1ccccc1)NC(=O)CNC(=O)[C@@H](C)NC(=O)[C@@H](N)Cc1ccc(O)cc1)C(=O)N[C@@H](Cc1c[nH]c2ccccc12)C(=O)NCc1cc(C(F)(F)F)cc(C(F)(F)F)c1 measured_target=MOR assay_endpoint=Ki^μ/Ki^δ readout_value=6/1
compound="CC(C)C[C@H](NC(=O)[C@@H]1CCCN1C(=O)[C@H](Cc1ccc(O)cc1)NC(=O)CNC(=O)[C@H](Cc1ccccc1)NC(=O)[C@@H](C)NC(=O)[C@@H](N)Cc1ccc(O)cc1)C(=O)N[C@@H](Cc1c[nH]c2ccccc12)C(=O)N(C)Cc1cc(C(F)(F)F)cc(C(F)(F)F)c1 [QXP04] (H-Y[dA]FGYPLW-{NMeBn(3,5-(CF3)2)})" measured_target=MOR assay_endpoint=Ki^μ/Ki^δ readout_value=1/7

Look at each compound and report its Ki^μ/Ki^δ.
1. CC(C)C[C@H](NC(=O)[C@@H]1CCCN1C(=O)CNC(=O)[C@H](CCC(N)=O)NC(=O)[C@H](Cc1ccccc1)N(C)C(=O)CNC(=O)[C@@H](C)NC(=O)[C@@H](N)Cc1ccc(O)cc1)C(=O)N[C@@H](Cc1c[nH]c2ccccc12)C(=O)NCc1cc(C(F)(F)F)cc(C(F)(F)F)c1 [AKG-SK-145] (H-Y[dA]G[NMeF]QGPLW-{NH(3,5-(CF3)2-benzyl)})
2. Cc1cc(O)cc(C)c1C[C@H](N)C(=O)N[C@H](C)C(=O)NCC(=O)N(C)[C@@H](Cc1ccccc1)C(=O)N[C@@H](CCC(N)=O)C(=O)NCC(=O)N1CCC[C@H]1C(=O)N[C@@H](CC(C)C)C(=O)N[C@@H](Cc1c[nH]c2ccccc12)C(=O)NCc1cc(C(F)(F)F)cc(C(F)(F)F)c1 [AKG-SK-146] (H-[Dmt][dA]G[NMeF]QGPLW-{NH(3,5-(CF3)2-benzyl)}; N-terminus assumed)
3. CC(C)C[C@H](NC(=O)[C@@H]1CCCN1C(=O)[C@H](CO)NC(=O)[C@H](Cc1ccccc1)N(C)C(=O)CNC(=O)[C@@H](C)NC(=O)[C@@H](N)Cc1ccc(O)cc1)C(=O)N[C@@H](Cc1c[nH]c2ccccc12)C(=O)NCc1cc(C(F)(F)F)cc(C(F)(F)F)c1 [AKG126] (H-Y[dA]G[NMeF]SPLW-{NH(3,5-(CF3)2-benzyl)})

["1/3", "1/1", "1/31"]
